Below: a set of entries, each annotated with reported T/C.
- Test system: CD2F1 mice, L1210 leukemia ip, survival T/C
- Procedure details: NCI In Vivo Anticancer Drug Screen. Data for tumor model L1210 Leukemia (intraperitoneal) in CD2F1 (CDF1) mice
- Conditions used: endpoint: mean survival time; dose: 200.0 mg/kg/injection; schedule: Q01DX001 (ip); vehicle: saline with Tween-80; higher = longer survival
Toxic doses and inconclusive results are not listed.

Look over these answered cases.
[[record]]
compound = "CC(=O)OC1CC2C=CCC21 (stereo not drawn)"
result_value = "96 % of control"

[[record]]
compound = "N#CC(/C=C/c1ccccc1)NCC(O)c1ccccc1 (stereo not drawn)"
result_value = "101 % of control"

[[record]]
compound = "NC1=C(Br)C(=O)C(=O)c2ccccc21"
result_value = "101 % of control"

[[record]]
compound = "Nc1nc2c(c(=O)[nH]1)N(Cc1c[nH]c(=O)[nH]c1=O)C(CNc1ccc(C(=O)NC(CCC(=O)O)C(=O)O)cc1)CN2 (stereo not drawn)"
result_value = "92 % of control"

[[record]]
compound = "CCCCCCCCCCCCOc1ccc(Cl)cc1Sc1cc(Cl)ccc1OCCCCCCCCCCCC"
result_value = "93 % of control"


Task item: API: value(readout=T/C, system=CD2F1 mice, L1210 leukemia ip, survival T/C) for record CCOc1ccc(-n2c(O)c(N=Nc3ccccc3OC)c(=O)n(-c3ccc(OC)cc3)c2=S)cc1
Reply: 95 % of control

Task item: API: value(readout=T/C, system=CD2F1 mice, L1210 leukemia ip, survival T/C) for record COC(=O)c1cncn1C1c2ccccc2-c2ccccc21
Reply: 91 % of control

Task item: API: value(readout=T/C, system=CD2F1 mice, L1210 leukemia ip, survival T/C) for record CCS(=O)(=O)C(C)S(=O)(=O)CC
Reply: 107 % of control

Task item: API: value(readout=T/C, system=CD2F1 mice, L1210 leukemia ip, survival T/C) for record COc1cc(/C=C\[N+](=O)[O-])c([N+](=O)[O-])cc1OCc1ccccc1
Reply: 97 % of control

Task item: API: value(readout=T/C, system=CD2F1 mice, L1210 leukemia ip, survival T/C) for record CC(C)(C)NC(=O)Nc1ccc(Cl)c(Cl)c1
Reply: 88 % of control

Origin of values: PubChem BioAssay AID256
